- Target entity: glucocorticoid receptor (Homo sapiens)
- Construct: endogenous in cells
- Sequence (P04150 1-777): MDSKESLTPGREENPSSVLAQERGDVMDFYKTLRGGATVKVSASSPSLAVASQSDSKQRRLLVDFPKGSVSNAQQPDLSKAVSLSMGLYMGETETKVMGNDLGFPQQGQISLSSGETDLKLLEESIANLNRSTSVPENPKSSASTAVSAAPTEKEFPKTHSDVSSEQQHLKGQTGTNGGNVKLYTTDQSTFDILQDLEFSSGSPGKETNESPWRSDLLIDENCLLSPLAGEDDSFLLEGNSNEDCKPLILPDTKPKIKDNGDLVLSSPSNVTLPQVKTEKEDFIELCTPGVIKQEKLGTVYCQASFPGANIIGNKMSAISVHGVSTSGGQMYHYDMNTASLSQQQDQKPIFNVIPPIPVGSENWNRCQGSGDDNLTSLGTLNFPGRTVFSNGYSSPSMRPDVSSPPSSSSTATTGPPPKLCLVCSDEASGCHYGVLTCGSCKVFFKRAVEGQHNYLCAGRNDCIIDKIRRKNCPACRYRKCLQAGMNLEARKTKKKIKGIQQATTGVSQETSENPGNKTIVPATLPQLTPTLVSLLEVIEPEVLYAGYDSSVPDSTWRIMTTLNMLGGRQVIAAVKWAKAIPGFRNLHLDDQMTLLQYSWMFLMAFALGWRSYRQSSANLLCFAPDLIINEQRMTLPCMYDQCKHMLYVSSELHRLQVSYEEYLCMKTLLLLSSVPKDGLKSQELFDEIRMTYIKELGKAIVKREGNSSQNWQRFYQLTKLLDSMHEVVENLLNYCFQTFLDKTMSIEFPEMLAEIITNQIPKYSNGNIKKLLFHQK
- Assay info: Ligand binding assay (GR BIND)
Measured endpoint: Ki (nM)

Record excerpt, results attached:
Query: Fill in the blank: the reported Ki of "C[C@]12Cc3cnn(-c4ccc(F)cc4)c3C=C1CC[C@@H]2CN(CCc1ccccn1)S(=O)(=O)CC(F)(F)F" is ____.
Reply: 0.8

Query: Further, for Cc1noc(C)c1S(=O)(=O)N(CC1CCCO1)C[C@H]1CCC2=Cc3c(cnn3-c3ccc(F)cc3)C[C@@]21C (some centres unmarked) ?
Reply: 2.6

Query: Further, for "C[C@]12Cc3cnn(-c4ccc(F)cc4)c3C=C1CC[C@@H]2CN(CCc1ccccc1O)S(=O)(=O)c1ccccc1F" ?
Reply: 1.4

Query: Further, for "Cn1cnc(S(=O)(=O)N(CC#N)C[C@H]2CCC3=Cc4c(cnn4-c4ccc(F)cc4)C[C@@]32C)c1" ?
Reply: 10.7

Query: Further, for "C[C@]12Cc3cnn(-c4ccc(F)cc4)c3C=C1CC[C@@H]2CN(CC#N)S(=O)(=O)c1ccc(Oc2cccc(Cl)c2C#N)cc1" ?
Reply: 6.4

[P] C[C@]12Cc3cnn(-c4ccc(F)cc4)c3C=C1CC[C@@H]2CN(CC#N)S(=O)(=O)c1ccccc1C#N
[Q] C[C@]12Cc3cnn(-c4ccc(F)cc4)c3C=C1CC[C@@H]2CN(CC#N)S(=O)(=O)Cc1cccc(C(F)(F)F)c1
[R] Cn1cc(S(=O)(=O)N(CCc2ccccn2)C[C@H]2CCC3=Cc4c(cnn4-c4ccc(F)cc4)C[C@@]32C)c(C(F)(F)F)n1
Query: Order the records so the highest Ki appears first and the lowest last. // format: requested-order list of labels
Reply: Q, P, R
(Q: 7.6 nM, P: 2.7 nM, R: 1.5 nM)

Data origin, for the record: patent US8299048B2
